tested on: biotinyl-Met-oxazolone; test: self-aminoacylation, catalytic enhancement (BMO) (fold over background); higher = more active; k-Seq, kA / k0A0; sequences stand for … in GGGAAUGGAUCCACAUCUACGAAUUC…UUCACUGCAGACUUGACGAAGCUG
Fewer inactive variants are shown than the library holds.
readoutType: self-aminoacylation
Just the number.

sequence	self-aminoacylation
AUUACCCUGGUCAUCGAGAUA [Fam2.1 aminoacylation ribozyme variant]	3.42
AUUCACCUAGGUCAUCGGCUU [Fam2.2 aminoacylation ribozyme variant]	2.26
AUUACCCUGAUCACCGAGUGA [Fam2.1 aminoacylation ribozyme variant]	7.33

Give its self-aminoacylation value. Item: AUUGACCUAGGUCAUCUGGUG [Fam2.2 aminoacylation ribozyme variant]
1.9

Same lookup for CUACUUCGAACAAUCGUUCUG [Fam1A.1 aminoacylation ribozyme variant] , please.
0.453

Same lookup for GCACCCUUCAAGCAAUCGGUC [Fam1B.1 aminoacylation ribozyme variant] , please.
1.22

Same lookup for AAGGUUGGUAAUAGUCGCAAG [Fam3.1 aminoacylation ribozyme variant] , please.
1.59

Same lookup for AUGUUUGCUAAUAGUCGCGAG [Fam3.1 aminoacylation ribozyme variant] , please.
1.57

Same lookup for AUUCACCUAGUUCUUCGGGUG [Fam2.2 aminoacylation ribozyme variant] , please.
2.71

* * *

test system: biotinyl-Ile-oxazolone; assay: self-aminoacylation, catalytic enhancement (BIO) (fold over background); higher = more active; k-Seq, kA / k0A0; sequences stand for … in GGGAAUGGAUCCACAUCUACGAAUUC…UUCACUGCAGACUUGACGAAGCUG
Variants at the floor of the assay were thinned out.
Entries annotated with measured self-aminoacylation
Just the number.

Previously resolved entries follow.
sequence	self-aminoacylation
AAGUUAGCUAAUAGUCGCAAG [Fam3.1 aminoacylation ribozyme variant]	1.78
CCACACUUCCAGCAAUCGGUG [Fam1B.1 aminoacylation ribozyme variant]	2.74
AUUACCCAGGUCGUCGAGUGA [Fam2.1 aminoacylation ribozyme variant]	0.849

# context switch: different sequence, same self-aminoacylation
Give its self-aminoacylation value. Item: CUACUUAAACCAAUCGGUCUG [Fam1A.1 aminoacylation ribozyme variant]
0.88

* * *

test system: biotinyl-Leu-oxazolone; assay: self-aminoacylation, catalytic enhancement (BLO) (fold over background); higher = more active; k-Seq, kA / k0A0; sequences stand for … in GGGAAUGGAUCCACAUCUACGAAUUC…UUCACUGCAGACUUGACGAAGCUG
Variants at the floor of the assay were thinned out.
readoutType: self-aminoacylation
Just the number.

Previously resolved entries follow.
sequence	observed
AUUAGCCUGGUGAUCGAGUGA [Fam2.1 aminoacylation ribozyme variant]	7.61
AUUCACCGAGGUCAUCGCGUG [Fam2.2 aminoacylation ribozyme variant]	19.1
AUUACCCUGCUCAGCGAGUGA [Fam2.1 aminoacylation ribozyme variant]	3.79
AUUCACCUAGGUGAUCGGGUA [Fam2.2 aminoacylation ribozyme variant]	3.14

# context switch: different sequence, same self-aminoacylation
Give its self-aminoacylation value. Item: AUUCACCUAGCUCAUCGGGUA [Fam2.2 aminoacylation ribozyme variant]
2.41

* * *

test system: biotinyl-Val-oxazolone; test: self-aminoacylation, catalytic enhancement (BVO) (fold over background); higher = more active; k-Seq, kA / k0A0; sequences stand for … in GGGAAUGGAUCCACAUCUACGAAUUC…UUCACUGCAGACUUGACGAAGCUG
Variants at the floor of the assay were thinned out.
Label yes (1) when self-aminoacylation is at or above 1; otherwise label no (0).

Worked set:
sequence	assayTarget	label
CUUACCCUGGUGAUCGAGUGA [Fam2.1 aminoacylation ribozyme variant]	biotinyl-Val-oxazolone	yes (1)
AAGUAUGCUCAUAGUCGCAAG [Fam3.1 aminoacylation ribozyme variant]	biotinyl-Val-oxazolone	yes (1)
CUACUUCAACGAAUCGGUCUG [Fam1A.1 aminoacylation ribozyme variant]	biotinyl-Val-oxazolone	no (0)
CCACAGAUCAAGCAAUCGGUC [Fam1B.1 aminoacylation ribozyme variant]	biotinyl-Val-oxazolone	no (0)
AUUCACCUAGGUAAUCGGGUU [Fam2.2 aminoacylation ribozyme variant]	biotinyl-Val-oxazolone	yes (1)

Is reported self-aminoacylation greater than or equal to 1 here: AAGUAUGCUAAUAGUCGCAUG [Fam3.1 aminoacylation ribozyme variant]
yes (1)

Same lookup for CCCCUUCAAACAAUCGGUCUG [Fam1A.1 aminoacylation ribozyme variant] , please.
yes (1)

Same lookup for CUAGUUCAAACAAUCGGUCAG [Fam1A.1 aminoacylation ribozyme variant] , please.
no (0)

* * *

system: biotinyl-Ile-oxazolone; experiment: self-aminoacylation, catalytic enhancement (BIO) (fold over background); higher = more active; k-Seq, kA / k0A0; sequences stand for … in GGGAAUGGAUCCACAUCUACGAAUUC…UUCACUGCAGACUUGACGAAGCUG
Variants at the floor of the assay were thinned out.
readoutType: self-aminoacylation
Just the number.

Give its self-aminoacylation value. Item: AUUCGCCUGGUCAUCGAGUGA [Fam2.1 aminoacylation ribozyme variant]
3.01

* * *

test system: biotinyl-Met-oxazolone; experiment: self-aminoacylation, catalytic enhancement (BMO) (fold over background); higher = more active; k-Seq, kA / k0A0; sequences stand for … in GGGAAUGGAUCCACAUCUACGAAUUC…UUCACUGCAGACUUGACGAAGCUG
Fewer inactive variants are shown than the library holds.
readoutType: self-aminoacylation
Just the number.

Previously resolved entries follow.
sequence	readoutType	observed
AUUACCCCGGUCGUCGAGUGA [Fam2.1 aminoacylation ribozyme variant]	self-aminoacylation	1.39
CCACACAGCAAGCAAUCGGUC [Fam1B.1 aminoacylation ribozyme variant]	self-aminoacylation	0.699
AAGUUUGCUAAUAUUCGCAAU [Fam3.1 aminoacylation ribozyme variant]	self-aminoacylation	1.11

Give its self-aminoacylation value. Item: GUUACCCUGGUCAUCGAGUGG [Fam2.1 aminoacylation ribozyme variant]
57.2

Same lookup for AUUCACCUAGGUGAUCGGGUG [Fam2.2 aminoacylation ribozyme variant] , please.
2.81

* * *

system: biotinyl-Ile-oxazolone; assay: self-aminoacylation, catalytic enhancement (BIO) (fold over background); higher = more active; k-Seq, kA / k0A0; sequences stand for … in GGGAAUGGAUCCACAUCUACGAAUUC…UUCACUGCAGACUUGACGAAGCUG
Fewer inactive variants are shown than the library holds.
Label rule met when self-aminoacylation is at or above 0.9; otherwise label rule not met.

Worked set:
sequence	assayTarget	label
CUAUUUCAAACAAUCGGUCUU [Fam1A.1 aminoacylation ribozyme variant]	biotinyl-Ile-oxazolone	rule not met
CUACUUCAAACAAUCGGUGGG [Fam1A.1 aminoacylation ribozyme variant]	biotinyl-Ile-oxazolone	rule met
CCCCUUCAAACAAUCGGUCUG [Fam1A.1 aminoacylation ribozyme variant]	biotinyl-Ile-oxazolone	rule met
AUUACCCUAGUCAUGGAGUGA [Fam2.1 aminoacylation ribozyme variant]	biotinyl-Ile-oxazolone	rule met

Is reported self-aminoacylation greater than or equal to 0.9 here: AUUCACCUAGGGCAUCGGUUG [Fam2.2 aminoacylation ribozyme variant]
rule met

Same lookup for CUACUUCUAACAAUGGGUCUG [Fam1A.1 aminoacylation ribozyme variant] , please.
rule not met

Same lookup for AUUACCCUGGACAUGGAGUGA [Fam2.1 aminoacylation ribozyme variant] , please.
rule met

* * *

test system: biotinyl-Val-oxazolone; experiment: self-aminoacylation, catalytic enhancement (BVO) (fold over background); higher = more active; k-Seq, kA / k0A0; sequences stand for … in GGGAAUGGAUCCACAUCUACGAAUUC…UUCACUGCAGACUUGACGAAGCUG
This sample holds only a part of the variants without activity.
readoutType: self-aminoacylation
Just the number.

Previously resolved entries follow.
sequence	assayTarget	self-aminoacylation
AUUCAGCUAGGUCAUCGGGGG [Fam2.2 aminoacylation ribozyme variant]	biotinyl-Val-oxazolone	2.23
CCACUUCAAACUAUCGGUCUG [Fam1A.1 aminoacylation ribozyme variant]	biotinyl-Val-oxazolone	1.46
AUUACCCUCGUCACCGAGUGA [Fam2.1 aminoacylation ribozyme variant]	biotinyl-Val-oxazolone	2.74
GAGUUUGCUAAUAGUCGGAAG [Fam3.1 aminoacylation ribozyme variant]	biotinyl-Val-oxazolone	1.38

Give its self-aminoacylation value. Item: CUACUUCAAACGCUCGGUCUG [Fam1A.1 aminoacylation ribozyme variant]
0.828

Same lookup for CUACGUAAAACAAUCGGUCUG [Fam1A.1 aminoacylation ribozyme variant] , please.
0.999

Same lookup for AUACUUCAAACAAUCGGUGUG [Fam1A.1 aminoacylation ribozyme variant] , please.
0.94

Same lookup for AUUCACCUAGAUCAUUGGGUG [Fam2.2 aminoacylation ribozyme variant] , please.
1.91

Same lookup for AUUACCCUGGUCAUGAAGUGA [Fam2.1 aminoacylation ribozyme variant] , please.
4.08

* * *

tested on: biotinyl-Val-oxazolone; assay: self-aminoacylation, catalytic enhancement (BVO) (fold over background); higher = more active; k-Seq, kA / k0A0; sequences stand for … in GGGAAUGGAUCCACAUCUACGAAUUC…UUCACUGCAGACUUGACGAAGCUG
Variants at the floor of the assay were thinned out.
readoutType: self-aminoacylation
Just the number.

Previously resolved entries follow.
sequence	readoutType	observed
CUACUCCAAACAAUCGGGCUG [Fam1A.1 aminoacylation ribozyme variant]	self-aminoacylation	1.01
AAGUUUGCUAGUAAUCGCAAG [Fam3.1 aminoacylation ribozyme variant]	self-aminoacylation	0.819
UUUUACCUAGGUCAUCGGGUG [Fam2.2 aminoacylation ribozyme variant]	self-aminoacylation	6.67
UUUCAGCUAGGUCAUCGGGUG [Fam2.2 aminoacylation ribozyme variant]	self-aminoacylation	6.04
ACUACCCUGGUCAUCCAGUGA [Fam2.1 aminoacylation ribozyme variant]	self-aminoacylation	3.27

Give its self-aminoacylation value. Item: AUUACCCCGGUCAGCGAGUGA [Fam2.1 aminoacylation ribozyme variant]
3.28

Same lookup for ACACUUCAAACAAUCGGUCUG [Fam1A.1 aminoacylation ribozyme variant] , please.
1.43

Same lookup for CUACUUAAUACAAUCGGUCUG [Fam1A.1 aminoacylation ribozyme variant] , please.
0.849

Same lookup for CUACUUCCAACAUUCGGUCUG [Fam1A.1 aminoacylation ribozyme variant] , please.
1.39

Same lookup for AUACUUCAAACAAUUGGUCUG [Fam1A.1 aminoacylation ribozyme variant] , please.
1.04

Recorded values, source the supplement of paper PMC9233669.
